# TARGET UNDER TEST: Thromboxane A2 receptor (Rattus norvegicus)
# EXPERIMENT: Thromboxane A2 receptor antagonistic action (inhibitory action of U-46619-induced contractions of rat aortic strips)
# CONDITION SET: isolated helical strips of rat aorta precontracted with 3×10^-8 M U-46619; read-out: IC50 (the concentrations which inhibited the contraction by 50%)
pIC50: −log10 of the molar value.

STRUCTURE SMILES: CC(C)c1ccc2c(CCCCNC(=O)c3ccccc3)cc(C(=O)O)c-2cc1
pIC50: 5.36

STRUCTURE SMILES: CC(C)c1ccc2c(C(=O)O)cc([C@H](C)CCCNS(=O)(=O)c3ccccc3)c-2cc1
pIC50: 6.68

STRUCTURE SMILES: O=C(O)c1cc(CCCCCCNS(=O)(=O)c2ccccc2)c2cccccc1-2
pIC50: 6.85

STRUCTURE SMILES: CC(C)c1ccc2c(CC[C@@H](C)CNS(=O)(=O)c3ccccc3)cc(C(=O)O)c-2cc1
pIC50: 7.46

STRUCTURE SMILES: CC(C)c1ccc2c(C(=O)O)cc([C@@H](C)CCCNS(=O)(=O)c3ccccc3)c-2cc1
pIC50: 7.36

STRUCTURE SMILES: CC(C)c1ccc2c(CCC[C@H](C)NS(=O)(=O)c3ccccc3)cc(C(=O)O)c-2cc1
pIC50: 7.30

---

# TARGET UNDER TEST: Thromboxane A2 receptor (Rattus norvegicus)
# EXPERIMENT: Thromboxane A2 receptor antagonistic action (inhibitory action of U-46619-induced contractions of rat aortic strips)
# CONDITION SET: isolated helical strips of rat aorta precontracted with 3×10^-8 M U-46619; read-out: IC50 (the concentrations which inhibited the contraction by 50%)
Structures can show the parent of a compound that is named as a salt.

COMPOUND: CC(C)c1ccc2c(CCCCNS(=O)(=O)c3ccc(I)cc3)cc(S(=O)(=O)O)c-2cc1 [Compound 51, sodium salt]
MEASUREMENT UNITS: nM
IC50: 1.6
//
COMPOUND: CC(C)c1ccc2c(CCCCNS(=O)(=O)c3ccc(F)cc3)cc(S(=O)(=O)O)c-2cc1 [Compound 47, sodium salt]
MEASUREMENT UNITS: nM
IC50: 4.4
//
COMPOUND: CC(C)c1ccc2c(CCCCNS(=O)(=O)c3ccc(F)cc3)cc(C(=O)O)c-2cc1
MEASUREMENT UNITS: nM
IC50: 11
//
COMPOUND: CC(C)c1ccc2c(CCCCNS(=O)(=O)c3ccc(C(F)(F)F)cc3)cc(C(=O)O)c-2cc1
MEASUREMENT UNITS: nM
IC50: 12
//
COMPOUND: CC(C)c1cccc2c(CCCCCCNS(=O)(=O)c3ccccc3)cc(C(=O)O)c-2c1
MEASUREMENT UNITS: nM
IC50: 920
//
COMPOUND: CC(C)c1ccc2c(C/C=C\CNS(=O)(=O)c3ccccc3)cc(C(=O)O)c-2cc1
MEASUREMENT UNITS: nM
IC50: 52
//
COMPOUND: CC(C)c1cccc2c(CCNS(=O)(=O)c3ccccc3)cc(C=CC(=O)O)c-2c1
MEASUREMENT UNITS: nM
IC50: 21000
//
COMPOUND: Cc1ccc(S(=O)(=O)NCCCCc2cc(C(=O)O)c3ccc(C(C)C)ccc2-3)cc1
MEASUREMENT UNITS: nM
IC50: 20
//
COMPOUND: CC(C)c1ccc2c(CCCCNS(=O)(=O)c3ccc([N+](=O)[O-])cc3)cc(C(=O)O)c-2cc1
MEASUREMENT UNITS: nM
IC50: 13
//
COMPOUND: CC(C)c1ccc2c(CC(C)(C)CCNS(=O)(=O)c3ccccc3)cc(C(=O)O)c-2cc1
MEASUREMENT UNITS: nM
IC50: 690
//
COMPOUND: CC(C)c1ccc2c(CCC[C@@H](C)NS(=O)(=O)c3ccccc3)cc(C(=O)O)c-2cc1
MEASUREMENT UNITS: nM
IC50: 420
//
COMPOUND: COc1ccc(S(=O)(=O)NCCCCc2cc(C(=O)O)c3ccc(C(C)C)ccc2-3)cc1
MEASUREMENT UNITS: nM
IC50: 16
//
COMPOUND: CC(C)c1ccc2c(CCNS(=O)(=O)c3ccccc3)cc(C(=O)O)c-2cc1
MEASUREMENT UNITS: nM
IC50: 60000
//
COMPOUND: CC(C)c1ccc2c(CCCCNS(=O)(=O)c3ccc(Br)cc3)cc(C(=O)O)c-2cc1
MEASUREMENT UNITS: nM
IC50: 5.3
//
COMPOUND: O=C(O)c1cc(CCNS(=O)(=O)c2ccccc2)c2cccccc1-2
MEASUREMENT UNITS: nM
IC50: 21000
//
COMPOUND: CC(C)c1ccc2c(CCCCNS(=O)(=O)c3ccc(Cl)cc3)cc(C(=O)O)c-2cc1
MEASUREMENT UNITS: nM
IC50: 5.3
//
COMPOUND: CC(C)c1ccc2c(CCCCNS(=O)(=O)c3ccccc3)cc(S(=O)(=O)O)c-2cc1 [sodium salt]
MEASUREMENT UNITS: nM
IC50: 17
//
COMPOUND: CC(C)c1ccc2c(CC[C@H](C)CNS(=O)(=O)c3ccccc3)cc(C(=O)O)c-2cc1
MEASUREMENT UNITS: nM
IC50: 16
//
COMPOUND: CC(C)c1ccc2c(CCCCCCNS(=O)(=O)c3ccccc3)cc(C(=O)O)c-2cc1
MEASUREMENT UNITS: nM
IC50: 70
//
COMPOUND: CC(C)c1ccc2c(C[C@H](C)CCNS(=O)(=O)c3ccccc3)cc(C(=O)O)c-2cc1
MEASUREMENT UNITS: nM
IC50: 160
//
COMPOUND: O=C(O)c1cc(CCCCCCCCNS(=O)(=O)c2ccccc2)c2cccccc1-2
MEASUREMENT UNITS: nM
IC50: 15000
//
COMPOUND: CC(C)c1ccc2c(C/C=C/CNS(=O)(=O)c3ccccc3)cc(C(=O)O)c-2cc1
MEASUREMENT UNITS: nM
IC50: 460
//
COMPOUND: CC(C)c1ccc2c(CCCCNS(=O)(=O)c3ccc(Cl)c(Cl)c3)cc(C(=O)O)c-2cc1
MEASUREMENT UNITS: nM
IC50: 43
//
COMPOUND: CC(C)c1ccc2c(C[C@@H](C)CCNS(=O)(=O)c3ccccc3)cc(C(=O)O)c-2cc1
MEASUREMENT UNITS: nM
IC50: 36
//
COMPOUND: CC(C)c1ccc2c(CCCCNS(=O)(=O)c3ccc(Br)cc3)cc(S(=O)(=O)O)c-2cc1 [Compound 50, sodium salt]
MEASUREMENT UNITS: nM
IC50: 1.7
//
COMPOUND: CC(C)c1ccc2c(CCCCNS(=O)(=O)c3ccc(Cl)c(Cl)c3)cc(S(=O)(=O)O)c-2cc1 [Compound 49, sodium salt]
MEASUREMENT UNITS: nM
IC50: 15
//
COMPOUND: CC(C)c1ccc2c(C=CC(=O)O)cc(CCCCNS(=O)(=O)c3ccccc3)c-2cc1
MEASUREMENT UNITS: nM
IC50: 2400
//
COMPOUND: CC(C)c1ccc2c(CCCCN(C)S(=O)(=O)c3ccccc3)cc(C(=O)O)c-2cc1
MEASUREMENT UNITS: nM
IC50: 10000
//
COMPOUND: CC(C)c1ccc2c(CCCCNS(=O)(=O)c3ccc(Cl)cc3)cc(S(=O)(=O)O)c-2cc1 [Compound 48, sodium salt]
MEASUREMENT UNITS: nM
IC50: 1.7
//
COMPOUND: CC(C)c1ccc2c(CCC(C)(C)CNS(=O)(=O)c3ccccc3)cc(C(=O)O)c-2cc1
MEASUREMENT UNITS: nM
IC50: 50
//
COMPOUND: O=C(O)c1cc(CCCCNS(=O)(=O)c2ccccc2)c2cccccc1-2
MEASUREMENT UNITS: nM
IC50: 570

---

Items are presented alongside their recorded pIC50.
# TARGET UNDER TEST: Thromboxane A2 receptor (Rattus norvegicus, UniProt P34978)
# Sequence (P34978 whole entry): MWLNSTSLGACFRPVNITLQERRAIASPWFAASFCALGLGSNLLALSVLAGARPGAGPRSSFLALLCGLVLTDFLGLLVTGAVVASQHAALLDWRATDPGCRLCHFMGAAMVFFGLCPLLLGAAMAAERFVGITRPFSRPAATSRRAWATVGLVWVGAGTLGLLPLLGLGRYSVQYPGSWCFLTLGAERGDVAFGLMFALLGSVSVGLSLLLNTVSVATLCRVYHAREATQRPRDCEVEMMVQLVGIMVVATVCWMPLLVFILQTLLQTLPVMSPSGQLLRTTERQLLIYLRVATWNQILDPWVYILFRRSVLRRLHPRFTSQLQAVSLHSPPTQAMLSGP
# EXPERIMENT: Thromboxane A2 receptor antagonistic action (inhibitory action of U-46619-induced contractions of rat aortic strips)
# CONDITION SET: isolated helical strips of rat aorta precontracted with 3×10^-8 M U-46619; read-out: IC50 (the concentrations which inhibited the contraction by 50%)
pIC50: −log10 of the molar value.
PROPERTY NAME: pIC50

STRUCTURE SMILES: CC(C)c1ccc2c(CCCCNS(=O)(=O)c3ccccc3)cc(CC(=O)O)c-2cc1
PROPERTY NAME: pIC50
RECORDED VALUE: 6.52
//
STRUCTURE SMILES: CC(C)c1cccc2c(CCCCNS(=O)(=O)c3ccccc3)cc(C(=O)O)c-2c1
PROPERTY NAME: pIC50
RECORDED VALUE: 5.51
//
STRUCTURE SMILES: CC(C)c1ccc2c(CCCCNS(=O)(=O)c3ccccc3)cc(C(=O)O)c-2cc1
PROPERTY NAME: pIC50
RECORDED VALUE: 7.11
//
STRUCTURE SMILES: CC(C)c1ccc2c(CCCCNS(=O)(=O)c3ccc(I)cc3)cc(C(=O)O)c-2cc1
PROPERTY NAME: pIC50
RECORDED VALUE: 8.29
